# Experimental Details: 7-day mouse tolerability and PK study
# Test Context: female, C57BL/6, mouse, in vivo, po, 20 mg/kg, AUCtlast (rifabutin), Day 1; RFB 20 mg/kg alone; oral, mouse plasma
Readout Label: AUC(0-t) (ng·h/mL)
Supply the numeric figure in ng·h/mL, leaving out any unit text.

[Q] Can you share its AUC(0-t)? I mean this compound: CO[C@H]1/C=C/O[C@@]2(C)Oc3c(C)c(O)c4c(c3C2=O)C2=NC3(CCN(CC(C)C)CC3)NC2=C(NC(=O)/C(C)=C\C=C\[C@H](C)[C@H](O)[C@@H](C)[C@@H](O)[C@@H](C)[C@H](OC(C)=O)[C@@H]1C)C4=O
[A] 22100

---

# Experimental Details: 7-day mouse tolerability and PK study
# Test Context: female, C57BL/6, mouse, plasma, po, 200 mg/kg, Cmax (clarithromycin), Day 7; CLR 200 mg/kg alone; oral once daily, mouse plasma
Readout Label: Cmax (ng/mL)
Supply the numeric figure in ng/mL, leaving out any unit text.

[Q] Can you share its Cmax? I mean this compound: CC[C@H]1OC(=O)[C@H](C)[C@@H](O[C@H]2C[C@@](C)(OC)[C@@H](O)[C@H](C)O2)[C@H](C)[C@@H](O[C@@H]2O[C@H](C)C[C@H](N(C)C)[C@H]2O)[C@](C)(OC)C[C@@H](C)C(=O)[C@H](C)[C@@H](O)[C@]1(C)O
[A] 7430

---

# Experimental Details: 7-day mouse tolerability and PK study
# Test Context: female, C57BL/6, mouse, in vivo, po, 60 mg/kg, Cmax (rifabutin), Day 7; RFB 60 mg/kg with CLR 200 mg/kg and CFZ 30 mg/kg; oral once daily, mouse plasma
Readout Label: Cmax (ng/mL)
Supply the numeric figure in ng/mL, leaving out any unit text.

[Q] Can you share its Cmax? I mean this compound: CO[C@H]1/C=C/O[C@@]2(C)Oc3c(C)c(O)c4c(c3C2=O)C2=NC3(CCN(CC(C)C)CC3)NC2=C(NC(=O)/C(C)=C\C=C\[C@H](C)[C@H](O)[C@@H](C)[C@@H](O)[C@@H](C)[C@H](OC(C)=O)[C@@H]1C)C4=O
[A] 5720

---

# Experimental Details: 7-day mouse tolerability and PK study
# Test Context: female, C57BL/6, mouse, plasma, po, 100 mg/kg, tmax (clarithromycin), Day 7; CLR 100 mg/kg alone; oral once daily, mouse plasma
Readout Label: Tmax (h)
Supply the numeric figure in h, leaving out any unit text.

[Q] Can you share its Tmax? I mean this molecule: CC[C@H]1OC(=O)[C@H](C)[C@@H](O[C@H]2C[C@@](C)(OC)[C@@H](O)[C@H](C)O2)[C@H](C)[C@@H](O[C@@H]2O[C@H](C)C[C@H](N(C)C)[C@H]2O)[C@](C)(OC)C[C@@H](C)C(=O)[C@H](C)[C@@H](O)[C@]1(C)O
[A] 1

---

# Experimental Details: 7-day mouse tolerability and PK study
# Test Context: female, C57BL/6, mouse, plasma, po, 100 mg/kg, AUCtlast (clarithromycin), Day 7; CLR 100 mg/kg alone; oral once daily, mouse plasma
Readout Label: AUC(0-t) (ng·h/mL)
Supply the numeric figure in ng·h/mL, leaving out any unit text.

[Q] Can you share its AUC(0-t)? I mean this molecule: CC[C@H]1OC(=O)[C@H](C)[C@@H](O[C@H]2C[C@@](C)(OC)[C@@H](O)[C@H](C)O2)[C@H](C)[C@@H](O[C@@H]2O[C@H](C)C[C@H](N(C)C)[C@H]2O)[C@](C)(OC)C[C@@H](C)C(=O)[C@H](C)[C@@H](O)[C@]1(C)O
[A] 17500

---

# Experimental Details: 7-day mouse tolerability and PK study
# Test Context: female, C57BL/6, mouse, plasma, po, 200 mg/kg, Cmax (clarithromycin), Day 1; CLR 200 mg/kg with RFB 60 mg/kg and CFZ 30 mg/kg; oral, mouse plasma
# Method: Sixty (60) female mice were tested, 12 per treatment groups: […]
Readout Label: Cmax (ng/mL)
Supply the numeric figure in ng/mL, leaving out any unit text.

[Q] Can you share its Cmax? I mean this compound: CC[C@H]1OC(=O)[C@H](C)[C@@H](O[C@H]2C[C@@](C)(OC)[C@@H](O)[C@H](C)O2)[C@H](C)[C@@H](O[C@@H]2O[C@H](C)C[C@H](N(C)C)[C@H]2O)[C@](C)(OC)C[C@@H](C)C(=O)[C@H](C)[C@@H](O)[C@]1(C)O
[A] 8370

---

# Experimental Details: 7-day mouse tolerability and PK study
# Test Context: female, C57BL/6, mouse, plasma, po, 10 mg/kg, Cmax (clofazimine), Day 1; CFZ 10 mg/kg alone; oral, mouse plasma
Readout Label: Cmax (ng/mL)
Supply the numeric figure in ng/mL, leaving out any unit text.

[Q] Can you share its Cmax? I mean this compound: CC(C)/N=c1\cc2n(-c3ccc(Cl)cc3)c3ccccc3nc-2cc1Nc1ccc(Cl)cc1 [Clofazimine, clofazimine]
[A] 108

---

# Experimental Details: 7-day mouse tolerability and PK study
# Test Context: female, C57BL/6, mouse, plasma, po, 200 mg/kg, Cmax (clarithromycin), Day 1; CLR 200 mg/kg alone; oral, mouse plasma
Readout Label: Cmax (ng/mL)
Supply the numeric figure in ng/mL, leaving out any unit text.

[Q] Can you share its Cmax? I mean this compound: CC[C@H]1OC(=O)[C@H](C)[C@@H](O[C@H]2C[C@@](C)(OC)[C@@H](O)[C@H](C)O2)[C@H](C)[C@@H](O[C@@H]2O[C@H](C)C[C@H](N(C)C)[C@H]2O)[C@](C)(OC)C[C@@H](C)C(=O)[C@H](C)[C@@H](O)[C@]1(C)O
[A] 9110

---

# Experimental Details: 7-day mouse tolerability and PK study
# Test Context: female, C57BL/6, mouse, plasma, po, 200 mg/kg, tmax (clarithromycin), Day 7; CLR 200 mg/kg with RFB 60 mg/kg and CFZ 30 mg/kg; oral once daily, mouse plasma
Readout Label: Tmax (h)
Supply the numeric figure in h, leaving out any unit text.

[Q] Can you share its Tmax? I mean this compound: CC[C@H]1OC(=O)[C@H](C)[C@@H](O[C@H]2C[C@@](C)(OC)[C@@H](O)[C@H](C)O2)[C@H](C)[C@@H](O[C@@H]2O[C@H](C)C[C@H](N(C)C)[C@H]2O)[C@](C)(OC)C[C@@H](C)C(=O)[C@H](C)[C@@H](O)[C@]1(C)O [Clarithromycin, clarithromycin]
[A] 1

---

# Experimental Details: 7-day mouse tolerability and PK study
# Test Context: female, C57BL/6, mouse, in vivo, po, 20 mg/kg, AUCtlast (rifabutin), Day 7; RFB 20 mg/kg alone; oral once daily, mouse plasma
Readout Label: AUC(0-t) (ng·h/mL)
Supply the numeric figure in ng·h/mL, leaving out any unit text.

[Q] Can you share its AUC(0-t)? I mean this molecule: CO[C@H]1/C=C/O[C@@]2(C)Oc3c(C)c(O)c4c(c3C2=O)C2=NC3(CCN(CC(C)C)CC3)NC2=C(NC(=O)/C(C)=C\C=C\[C@H](C)[C@H](O)[C@@H](C)[C@@H](O)[C@@H](C)[C@H](OC(C)=O)[C@@H]1C)C4=O [Rifabutin, rifabutin]
[A] 26800

---

# Experimental Details: 7-day mouse tolerability and PK study
# Test Context: female, C57BL/6, mouse, plasma, po, 200 mg/kg, AUCtlast (clarithromycin), Day 7; CLR 200 mg/kg alone; oral once daily, mouse plasma
Readout Label: AUC(0-t)

[Q] Can you share its AUC(0-t)? I mean this molecule: CC[C@H]1OC(=O)[C@H](C)[C@@H](O[C@H]2C[C@@](C)(OC)[C@@H](O)[C@H](C)O2)[C@H](C)[C@@H](O[C@@H]2O[C@H](C)C[C@H](N(C)C)[C@H]2O)[C@](C)(OC)C[C@@H](C)C(=O)[C@H](C)[C@@H](O)[C@]1(C)O
[A] 34200 ng·h/mL

---

# Experimental Details: 7-day mouse tolerability and PK study
# Test Context: female, C57BL/6, mouse, plasma, po, 100 mg/kg, tmax (clarithromycin), Day 1; CLR 100 mg/kg alone; oral, mouse plasma
Readout Label: Tmax (h)
Supply the numeric figure in h, leaving out any unit text.

[Q] Can you share its Tmax? I mean this compound: CC[C@H]1OC(=O)[C@H](C)[C@@H](O[C@H]2C[C@@](C)(OC)[C@@H](O)[C@H](C)O2)[C@H](C)[C@@H](O[C@@H]2O[C@H](C)C[C@H](N(C)C)[C@H]2O)[C@](C)(OC)C[C@@H](C)C(=O)[C@H](C)[C@@H](O)[C@]1(C)O
[A] 1

---

# Experimental Details: 7-day mouse tolerability and PK study
# Test Context: female, C57BL/6, mouse, in vivo, po, 60 mg/kg, AUCtlast (rifabutin), Day 7; RFB 60 mg/kg with CLR 200 mg/kg and CFZ 30 mg/kg; oral once daily, mouse plasma
Readout Label: AUC(0-t) (µg·h/mL)
Supply the numeric figure in µg·h/mL, leaving out any unit text.

[Q] Can you share its AUC(0-t)? I mean this compound: CO[C@H]1/C=C/O[C@@]2(C)Oc3c(C)c(O)c4c(c3C2=O)C2=NC3(CCN(CC(C)C)CC3)NC2=C(NC(=O)/C(C)=C\C=C\[C@H](C)[C@H](O)[C@@H](C)[C@@H](O)[C@@H](C)[C@H](OC(C)=O)[C@@H]1C)C4=O
[A] 109
